src = ChEMBL document CHEMBL1201862

- SYSTEM NAME: UniProt P9WHJ3
- METHOD NOTES: Fluorescence Cell-Free Homogeneous Dose Retest to Identify Inhibitors of RecA-Intein Splicing Activity. [Related pubchem assays (depositor defined):AID2097, AID2223, AID489010, AID492950]
- Format: functional
The source made the active and inactive calls.
// classify into Y = active, N = inactive

Query :: Outcome logged for O=C1Nc2ccc(Br)cc2/C1=C/C(=O)c1ccc2c(c1)OCO2 in this assay:
Result :: Y

Query :: Same read-out for O=C1NC(=O)C(=NNc2cc([N+](=O)[O-])ccc2O)C(=O)N1 ?
Result :: Y

Query :: Now consider CC(C)CC1C(C#N)=C(N)Oc2[nH]nc(-c3cccs3)c21 (stereo not given) .
Result :: Y

Query :: Check CC1=NNC(=O)C1Cc1c(Cl)cccc1Cl (stereo not given) too.
Result :: Y

Query :: Also check CCOC(=O)c1c(NC(=O)/C=C/C(=O)O)sc(C)c1-c1ccc(F)cc1
Result :: Y

Query :: Repeat with Cn1c(SCC(=O)NCc2ccc(F)cc2)nc2ccccc21
Result :: N

Query :: Entry CN1C(=O)C(=C2CC(c3ccccc3)N(C(=O)CCl)N2)C(=O)N(C)C1=O (stereo not given) please
Result :: Y

Query :: Another: CC(C)CC1C(C#N)=C(N)Oc2[nH]nc(-c3ccccc3)c21 (stereo not given)
Result :: Y

Query :: Repeat for the following compound: CN1C(=O)/C(=C/c2ccc(-c3ccccc3[N+](=O)[O-])o2)S/C1=N\c1ccc(Cl)c(C(=O)O)c1
Result :: Y

Query :: CC(C)(C)NC(=O)C(c1ccc(Cl)cc1)N(Cc1ccco1)C(=O)CCl (stereo not given) ?
Result :: Y

* * *

- SYSTEM NAME: Rac GTPase-activating protein 1 (Homo sapiens, UniProt Q9H0H5)
- Sequence (Q9H0H5 whole entry): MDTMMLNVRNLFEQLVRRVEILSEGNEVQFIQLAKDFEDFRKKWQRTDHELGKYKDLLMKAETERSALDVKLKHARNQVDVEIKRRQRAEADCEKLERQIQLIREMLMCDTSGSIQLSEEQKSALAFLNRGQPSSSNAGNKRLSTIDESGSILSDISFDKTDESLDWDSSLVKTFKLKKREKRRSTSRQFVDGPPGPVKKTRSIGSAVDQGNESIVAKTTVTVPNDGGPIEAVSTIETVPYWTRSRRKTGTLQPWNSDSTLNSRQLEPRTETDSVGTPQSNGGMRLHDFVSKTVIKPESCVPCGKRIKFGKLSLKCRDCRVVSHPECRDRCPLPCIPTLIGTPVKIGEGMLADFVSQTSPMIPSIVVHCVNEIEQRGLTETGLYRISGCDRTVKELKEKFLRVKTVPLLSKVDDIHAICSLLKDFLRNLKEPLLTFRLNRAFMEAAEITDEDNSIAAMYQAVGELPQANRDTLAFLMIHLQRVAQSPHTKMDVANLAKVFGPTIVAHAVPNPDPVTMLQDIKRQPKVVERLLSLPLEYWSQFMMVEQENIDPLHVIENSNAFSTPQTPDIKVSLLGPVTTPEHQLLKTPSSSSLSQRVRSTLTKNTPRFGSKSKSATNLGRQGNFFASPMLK
- METHOD NOTES: MgcRacGAP GTPase-activating activity inhibitors, confirmation, biochemical, ADP Hunter fluorescence, primary and confirmatory (AID 624330)
- Assay type: functional
The source made the active and inactive calls.
What IC50 was measured for each of the following?

Query :: // query IC50 value for entry Oc1ccc(/C=N/Nc2cc(N3CCOCC3)nc(N3CCOCC3)n2)cc1O
Result :: 52.1 µM (active)

Query :: Now the compound COc1ccc(C)cc1NCc1ccc(OC)c(C)c1OC
Result :: 59.5 µM (active)

Query :: For C=CCNC(=S)Nc1ccc(OC(=O)Nc2ccc(Cl)c(Cl)c2)cc1 then?
Result :: 89 µM (active)

Query :: Let us now turn to Oc1ccc(/C=N/Nc2ncc(Cl)cc2Cl)cc1
Result :: 32.3 µM (active)

Query :: And then COc1cc(C=NNC(=O)c2ccccc2-n2cccc2)ccc1O , what is it?
Result :: 32.7 µM (active)

Query :: Next entry: CC1NC(C)c2c(ccc3ccccc23)O1 (centres undefined)
Result :: 114 µM (active)

Query :: // repeat for Cc1ccccc1C1=C/C(=C(\SS/C(C(=O)c2ccc(OCC(=O)O)c(Cl)c2Cl)=C2\C=C(c3ccccc3C)SS2)C(=O)c2ccc(OCC(=O)O)c(Cl)c2Cl)SS1 and report
Result :: 61.1 µM (active)

Query :: Thanks! And COc1cc(/C=C2\SC(Nc3ccccc3OC)=NC2=O)ccc1O ?
Result :: 22.2 µM (active)

Query :: Can you handle CC(=O)Nc1ccc(OC(=O)c2ccc(Br)c([N+](=O)[O-])c2)cc1 next?
Result :: 36.4 µM (active)

Query :: Request: Cc1c(N(C)C)nc2ccccc2c1N
Result :: 102 µM (active)

Query :: What about COc1ccc(CCNC(=O)CNCC(c2ccccc2)N(C)C)cc1OC (centres undefined) ?
Result :: 78.4 µM (active)

Query :: Continue with Oc1ccc(CCc2ccccn2)cc1
Result :: 40 µM (active)

Query :: // next record OCCN1CCN(CC(O)COC(c2ccc(F)cc2)c2ccc(F)cc2)CC1 (centres undefined)
Result :: 121 µM (active)

Query :: Same thing, different compound: Nc1ccc(N2CCN(c3cccc(Cl)c3)CC2)cc1
Result :: 21 µM (active)

* * *

- System: Streptococcus sp. 'group A'
- METHOD NOTES: growth inhibition of control SK(-) GAS strain, dose response, counter-screen for streptokinase expression inhibitor project, luminescence, kanamycin, BacTiterGlo, confirmation (AID 1900)
- Format: functional, organism-based
Active and inactive are the calls of the source.
Give measured EC50 for each item. Keep answers brief.

Query :: Quick check: EC50 of CC(C)c1ccc(-n2cccc2/C=C2/C(=N)N3C=CSC3=NC2=O)cc1 ?
Result :: 2100 nM (active)

Query :: And what about the compound CN1C(=O)/C(=C\c2ccccc2F)Sc2ccc(C(=O)NC3CCN(Cc4ccccc4)CC3)cc21 ?
Result :: 7120 nM (active)

Query :: Query COc1ccc(C(=O)NNC(=S)NC(=O)c2ccccc2)cc1 next
Result :: 1180 nM (active)

Query :: Also check Cc1ccnn2c(-c3ccccc3)c3c(=O)n(C)c(=O)n(C)c3c12
Result :: > 150000 nM (not active)

Query :: // query: CCOC(=O)N1CCN(C(=O)c2ccc3c(c2)NC(=O)/C(=C\c2ccc(OC)c(OC)c2)S3)CC1
Result :: 875 nM (active)

Query :: // same read-out, input: COc1cc(C(=O)NS(=O)(=O)c2ccccc2C)ccc1Cc1cn(C)c2ccc(NC(=O)OC3CCCC3)cc12
Result :: 936 nM (active)

Query :: And for COc1ccc(C(=O)NNC(=S)NC(=O)c2ccc(Br)o2)cc1OC ?
Result :: 790 nM (active)

Query :: Also need C=CCn1c(N2C(=O)CC(Cc3ccccc3)C2=O)nc2ccccc21 (stereo not drawn) , thanks.
Result :: 9020 nM (active)

* * *

Would you mind telling me the reported EC50 of each entry?
- METHOD NOTES: inhibitors of SNCA 5'UTR-driven reporter translation, confirmation, H4 neuroglioma cells, luminescence (AID 1988)
- Format: functional, cell-based
The source made the active and inactive calls.

Query :: Given the entry CC(OC(=O)c1oc2ccccc2c1COc1ccccc1)C(N)=O (centres undefined) , report its measured EC50.
Result :: 26.1 µM (active)

Query :: What about CCC1(CC)NC(=O)N(CC(=O)N2N=C(c3ccc(Cl)cc3)CC2c2ccco2)C1=O (centres undefined) ?
Result :: > 120 µM (not active)

Query :: And then CC1(C)Cc2c(c(N3CCOCC3)nc3sc4c(NCc5ccccc5)nnnc4c23)CS1 , what is it?
Result :: 10.6 µM (active)

Query :: Next compound up: CCc1nc(N)nc(N)c1-c1ccc(Cl)cc1 [PYRIMETHAMINE]
Result :: 0.2 µM (active)

* * *

- SYSTEM NAME: Heat shock protein HSP 90-alpha (Homo sapiens, UniProt P07900)
- Format: functional, organism-based
Active and inactive are the calls of the source.
PROPERTY NAME: AC50

Query :: // returns reported AC50 for input Cc1ccc(N2C(=O)C3C4C=CC(CN=C(S)Nc5ccc(Cl)cc5)(O4)C3C2=O)cc1 (stereo not given)
Result :: 25.4 µM (active)

Query :: Follow-up entry: Oc1cccc2ccc(/C=C/c3ccccc3Br)nc12
Result :: 12.9 µM (active)

Query :: Another compound to check: O=C(CN1CCN(c2ncc(C(F)(F)F)cc2Cl)CC1)NCCNc1ncc(C(F)(F)F)cc1Cl
Result :: 5.87 µM (active)

Query :: Let us now turn to CCN1CCCC1CN(Cc1cc2ccc(C)cc2nc1O)C(S)=Nc1ccc(F)cc1 (stereo not given)
Result :: 2.64 µM (active)

Query :: Next up: O=[N+]([O-])/C=C/c1cn(Cc2ccc(F)cc2)c2ccccc12
Result :: 8.8 µM (active)

* * *

- Tested on: INS1
- METHOD NOTES: beta cell apoptosis inhibitors, cytokine rescue, dose response, luminescence, retest (AID 449756);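 note: cell death triggered by IL-1 beta plus TNF-alpha plus IFN-gamma mixture; protective hits raise ATP signal compared with cytokine alone wells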
- Format: functional, cell-based
- CONDITION: Rattus norvegicus
Activity calls are given as the source filed them.
PROPERTY NAME: AC50

Query :: Look up AC50: O=[N+]([O-])/C=C/c1cn(Cc2ccc(F)cc2)c2ccccc12
Result :: 16.9 µM (active)

Query :: And what about the compound CCN(Cc1ccccc1)C(c1ccc(C(F)(F)F)cc1)c1nnnn1C(C)(C)C (configuration not stated) ?
Result :: 6.45 µM (active)

Query :: Do the same for c1ccc(-c2nnc3sc(-c4csc5c4CCCC5)nn23)cc1 please
Result :: 64.1 µM (active)

Query :: Same for Cc1ccc(NC(=O)c2ccccc2NS(=O)(=O)c2ccc(Cl)s2)cc1
Result :: 4.46 µM (active)

Query :: Cool, now Cc1cc(N2CCOCC2)n2ncc(-c3ccccc3)c2n1
Result :: 7.88 µM (active)

Query :: Also need N=c1c2c(n(Cc3ccc(Br)cc3)c3c1CCC3)CCCC2 , thanks.
Result :: 2.64 µM (active)

Query :: Proceed to Cc1ccc(NNC2=C3N=NN=C3C=CC2=O)cc1
Result :: 5.05 µM (active)
